In this section, each of the compounds is paired with its reported Solubility at 24 h.
Experiment: Solubility at different pH conditions (equilibrium, 24 h, HPLC)
Assay type: physicochemical
Conditions: pH 5, room temperature
Entry rule: numbers only, all in mg/mL.

Examples with their reported Solubility at 24 h follow.
# compound, unit-abbreviation, Solubility at 24 h
data = [
    ("O=P(O)(O)NS(=O)(=O)c1cncc(-c2nc(NCc3ccccn3)c3c(-c4ccccc4)cccc3n2)c1 [Compound 6]", "mg/mL", 0.25),
    ("O=P(O)(O)NS(=O)(=O)c1cncc(-c2nc(NCc3ccccn3)c3c(-c4ccccc4)cccc3n2)c1 [Compound 5]", "mg/mL", 0.022),
    ("O=P(O)(O)NS(=O)(=O)c1cncc(-c2nc(NCc3ccccn3)c3c(-c4ccccc4)cccc3n2)c1 [Compound 2]", "mg/mL", 0.002),
    ("O=P(O)(O)NS(=O)(=O)c1cncc(-c2nc(NCc3ccccn3)c3c(-c4ccccc4)cccc3n2)c1 [Compound 8]", "mg/mL", 0.03),
    ("O=P(O)(O)NS(=O)(=O)c1cncc(-c2nc(NCc3ccccn3)c3c(-c4ccccc4)cccc3n2)c1 [Compound 3]", "mg/mL", 0.15),
]

Let's switch to this compound now.
Looking up O=P(O)(O)NS(=O)(=O)c1cncc(-c2nc(NCc3ccccn3)c3c(-c4ccccc4)cccc3n2)c1 [Compound 7] , I see its Solubility at 24 h listed as 0.07
